The reported measurements were obtained from the supplement of paper PMC8882468.

# System: HCI-008 (organoid from a HER2-enriched breast cancer xenograft)
# ASSAY PROTOCOL: CTG-3D luminescence at 96 h relative to day-0 seeding control (ratio to day 0); higher = more growth / less cytotoxicity; PDxO 3D drug screen, 96 h, CTG-3D normalised to day-0 seeding control.
# TEST CONTEXT: 625 fM; days in culture: 244
This section presents compounds with their documented CTG-3D luminescence at 96 h values.
OBSERVABLE: CTG-3D luminescence at 96 h

CCc1c2c(nc3ccc(O)cc13)-c1cc3c(c(=O)n1C2)COC(=O)[C@]3(O)CC : 2.23
Cc1cc(Nc2ncc(Cl)c(Nc3ccccc3S(=O)(=O)C(C)C)n2)c(OC(C)C)cc1C1CCNCC1 : 2.17
CC(C)n1nc(-c2ccc3oc(N)nc3c2)c2c(N)ncnc21 : 2.11
O=C(/C=C/c1cccnc1)NCCCCC1CCN(C(=O)c2ccccc2)CC1 : 1.82
NC(=O)Nc1cc(-c2cccc(F)c2)sc1C(=O)N[C@H]1CCCNC1 : 2.38
CS(=O)(=O)c1ccc(C(=O)Nc2ccc(Cl)c(-c3ccccn3)c2)c(Cl)c1 : 2.24
C[C@@H]1COCCN1c1cc(C2([S@](C)(=N)=O)CC2)nc(-c2cc[nH]c3nccc2-3)n1 : 2.35
CCN(c1cc(C#CCN2CCOCC2)cc(C(=O)NCc2c(C)cc(C)[nH]c2=O)c1C)[C@H]1CC[C@H](N(C)CCOC)CC1 : 2.47
C/C=C1\NC(=O)[C@H]2CSSCC/C=C/[C@H](CC(=O)N[C@H](C(C)C)C(=O)N2)OC(=O)[C@H](C(C)C)NC1=O : 2.35
CN(Cc1cnc2nc(N)nc(N)c2n1)c1ccc(C(=O)N[C@@H](CCC(=O)O)C(=O)O)cc1 [methotrexate] : 2.31
CC(C)(C(=O)NCC(F)(F)C(F)(F)F)C(=O)N[C@@H]1C(=O)Nc2ccccc2-c2ccccc21 : 2.05
